- target.or.test.system: Tar (Escherichia coli)
- Construct: expressed in transfected cells; host or cells: receptorless E. coli VS181, plasmid pSB13 (pKG116 derivative)
- Sequence (P07017 whole entry): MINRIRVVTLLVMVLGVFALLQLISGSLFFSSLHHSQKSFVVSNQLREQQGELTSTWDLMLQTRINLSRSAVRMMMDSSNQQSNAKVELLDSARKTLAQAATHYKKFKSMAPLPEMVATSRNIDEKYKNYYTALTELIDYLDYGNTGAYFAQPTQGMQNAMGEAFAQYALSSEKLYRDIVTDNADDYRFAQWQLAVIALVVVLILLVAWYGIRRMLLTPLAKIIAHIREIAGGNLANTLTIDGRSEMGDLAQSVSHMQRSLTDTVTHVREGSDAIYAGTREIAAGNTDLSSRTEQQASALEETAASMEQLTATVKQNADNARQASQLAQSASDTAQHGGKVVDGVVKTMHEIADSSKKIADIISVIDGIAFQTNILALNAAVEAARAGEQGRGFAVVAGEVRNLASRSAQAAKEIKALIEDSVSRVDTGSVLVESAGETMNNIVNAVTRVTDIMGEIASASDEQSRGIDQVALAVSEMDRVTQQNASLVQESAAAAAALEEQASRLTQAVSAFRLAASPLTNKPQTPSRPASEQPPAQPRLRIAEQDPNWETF
- test.protocol: FRET (CheY-YFP/CheZ-CFP) chemotaxis pathway response, Tar as sole chemoreceptor
- Assay type: cell-based
- condition.details: pH 8.5; E. coli VS181 with Tar as sole chemoreceptor; read-out: EC50 (half-maximal effective concentration), FRET titration
observable: pEC50
Just so you know, pEC50 here is -log10 of the concentration in molar units; reply with that number alone.

So for N[C@@H](CC(=O)O)C(=O)O [L-aspartate] , the logged pEC50 turned out to be 7.11

* * *

- target.or.test.system: McpS-Tar (UniProt P07017+Q88E10)
- Construct: 295]-Tar[200-553] receptor; expressed in transfected cells; host or cells: receptorless E. coli VS181, plasmid pSB10 (pKG116 derivative)
- Sequence (Q88E10+P07017 fused): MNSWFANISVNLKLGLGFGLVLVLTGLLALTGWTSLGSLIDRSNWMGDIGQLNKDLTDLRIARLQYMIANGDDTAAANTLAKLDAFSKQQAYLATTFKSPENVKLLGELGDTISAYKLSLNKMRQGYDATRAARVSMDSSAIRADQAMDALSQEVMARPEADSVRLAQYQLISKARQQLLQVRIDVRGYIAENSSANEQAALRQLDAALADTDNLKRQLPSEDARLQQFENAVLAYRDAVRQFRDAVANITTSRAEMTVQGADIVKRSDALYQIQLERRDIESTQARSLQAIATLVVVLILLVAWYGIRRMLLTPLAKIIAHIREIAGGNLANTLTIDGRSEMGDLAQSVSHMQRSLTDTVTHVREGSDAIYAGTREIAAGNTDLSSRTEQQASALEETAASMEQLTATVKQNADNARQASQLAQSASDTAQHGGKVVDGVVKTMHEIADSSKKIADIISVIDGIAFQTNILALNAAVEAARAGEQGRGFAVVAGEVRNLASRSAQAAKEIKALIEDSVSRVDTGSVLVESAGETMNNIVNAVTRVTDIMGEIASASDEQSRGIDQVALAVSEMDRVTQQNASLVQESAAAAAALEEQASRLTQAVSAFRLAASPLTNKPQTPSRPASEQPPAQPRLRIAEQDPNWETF
- test.protocol: FRET (CheY-YFP/CheZ-CFP) chemotaxis pathway response, McpS-Tar hybrid as sole chemoreceptor
- Assay type: cell-based
- condition.details: pH 5.5; E. coli VS181 with McpS-Tar as sole chemoreceptor; read-out: EC50 (half-maximal effective concentration), FRET titration
observable: EC50 (µM)
A number alone suffices; assume µM.

I looked up O=C(O)C[C@H](O)C(=O)O [L-malate] and its EC50 for McpS-Tar (UniProt P07017+Q88E10) was 9.38

* * *

- target.or.test.system: TodS-Nter (Pseudomonas putida, UniProt E0X9C7)
- Sequence (E0X9C7 1-584): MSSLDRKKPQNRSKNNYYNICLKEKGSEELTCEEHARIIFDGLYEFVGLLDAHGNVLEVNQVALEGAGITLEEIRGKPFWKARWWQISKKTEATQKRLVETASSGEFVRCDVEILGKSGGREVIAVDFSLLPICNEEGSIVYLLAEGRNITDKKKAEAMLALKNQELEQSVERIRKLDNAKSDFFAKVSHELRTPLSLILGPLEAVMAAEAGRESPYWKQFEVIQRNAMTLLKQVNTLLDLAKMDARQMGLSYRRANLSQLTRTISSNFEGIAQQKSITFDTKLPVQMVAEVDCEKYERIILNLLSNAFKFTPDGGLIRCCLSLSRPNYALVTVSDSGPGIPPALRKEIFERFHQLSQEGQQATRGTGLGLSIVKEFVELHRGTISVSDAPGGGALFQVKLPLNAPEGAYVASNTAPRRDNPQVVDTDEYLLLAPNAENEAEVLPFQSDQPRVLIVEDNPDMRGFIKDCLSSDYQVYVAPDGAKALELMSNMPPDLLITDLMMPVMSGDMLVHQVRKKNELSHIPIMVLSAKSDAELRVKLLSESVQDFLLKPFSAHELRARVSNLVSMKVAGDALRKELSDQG
- test.protocol: biochemical
observable: pKd
Just so you know, pKd here is -log10 of the concentration in molar units; reply with that number alone.

So for Cc1ccccc1 , the logged pKd turned out to be 6.60

* * *

- target.or.test.system: McpQ-LBD (Pseudomonas putida)
- Construct: pET28b(+) derivative containing a DNA fragment encoding the McpQ-LBD
- Sequence (Q88D09 45-282): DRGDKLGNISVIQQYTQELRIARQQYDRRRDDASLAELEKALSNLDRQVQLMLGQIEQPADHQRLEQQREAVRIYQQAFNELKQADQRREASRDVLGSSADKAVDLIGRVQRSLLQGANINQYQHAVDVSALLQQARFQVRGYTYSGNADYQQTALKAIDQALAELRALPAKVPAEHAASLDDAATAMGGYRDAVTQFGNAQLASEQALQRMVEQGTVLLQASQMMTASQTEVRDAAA
- test.protocol: ITC titration of McpQ-LBD with citrate at different pH
- condition.details: 25°C, pH 6.0, read-out: KD at pH optimum
observable: pKd
Just so you know, pKd here is -log10 of the concentration in molar units; reply with that number alone.

So for O=C(O)CC(O)(CC(=O)O)C(=O)O [Citrate] , the logged pKd turned out to be 3.82

* * *

- target.or.test.system: PctA-LBD (Pseudomonas aeruginosa, UniProt G3XD24)
- Construct: pET28b(+) derivative containing a DNA fragment encoding the PctA-LBD; made in house
- Sequence (G3XD24 32-276): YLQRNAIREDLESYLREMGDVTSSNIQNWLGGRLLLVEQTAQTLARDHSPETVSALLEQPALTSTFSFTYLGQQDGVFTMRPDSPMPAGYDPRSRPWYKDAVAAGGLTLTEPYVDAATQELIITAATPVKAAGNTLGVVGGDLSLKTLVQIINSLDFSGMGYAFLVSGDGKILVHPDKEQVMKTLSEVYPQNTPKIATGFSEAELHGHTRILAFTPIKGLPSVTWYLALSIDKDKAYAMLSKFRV
- test.protocol: ITC titration of PctA-LBD with L-alanine at different pH
- Assay type: binding, P. aeruginosa PAO1
- condition.details: pH 9.0, read-out: dissociation constant (KD)
observable: Kd (nM)
A number alone suffices; assume nM.

So for C[C@H](N)C(=O)O , the logged Kd turned out to be 910

* * *

- target.or.test.system: Tar (Escherichia coli)
- Construct: expressed in transfected cells; host or cells: receptorless E. coli VS181, plasmid pSB13 (pKG116 derivative)
- test.protocol: FRET (CheY-YFP/CheZ-CFP) chemotaxis pathway response, Tar as sole chemoreceptor
- Assay type: cell-based
- condition.details: pH 5.5; E. coli VS181 with Tar as sole chemoreceptor; read-out: EC50 (half-maximal effective concentration), FRET titration
observable: EC50 (nM)
A number alone suffices; assume nM.

So for N[C@@H](CC(=O)O)C(=O)O [L-aspartate] , the logged EC50 turned out to be 166

* * *

- target.or.test.system: AdmX-LBD (Serratia plymuthica, UniProt P0DV33)
- Sequence (P0DV33 91-304): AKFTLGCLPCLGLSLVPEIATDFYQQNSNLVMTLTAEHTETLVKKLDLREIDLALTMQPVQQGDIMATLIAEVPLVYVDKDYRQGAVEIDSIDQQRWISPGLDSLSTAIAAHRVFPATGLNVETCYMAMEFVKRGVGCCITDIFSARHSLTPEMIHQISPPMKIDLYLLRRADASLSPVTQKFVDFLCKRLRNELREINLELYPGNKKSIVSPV
observable: pKd
Just so you know, pKd here is -log10 of the concentration in molar units; reply with that number alone.

I looked up O=C(O)C(=O)Cc1c[nH]c2ccccc12 and its pKd for AdmX-LBD (Serratia plymuthica, UniProt P0DV33) was 4.90

* * *

- target.or.test.system: PctA-LBD (Pseudomonas aeruginosa)
- Construct: pET28b(+) derivative containing a DNA fragment encoding the PctA-LBD; made in house
- test.protocol: ITC titration of PctA-LBD with L-alanine at different pH
- Format: binding, P. aeruginosa PAO1
- condition.details: average over the pH range 3.0 to 11.0, read-out: average dissociation constant (KD)
observable: Kd (µM)
A number alone suffices; assume µM.

So for C[C@H](N)C(=O)O [L-alanine] , the logged Kd turned out to be 1.26

* * *

- target.or.test.system: Tar (Escherichia coli)
- Construct: expressed in transfected cells; host or cells: receptorless E. coli VS181, plasmid pSB13 (pKG116 derivative)
- test.protocol: FRET (CheY-YFP/CheZ-CFP) chemotaxis pathway response, Tar as sole chemoreceptor
- Format: cell-based
- condition.details: pH 9.5; E. coli VS181 with Tar as sole chemoreceptor; read-out: EC50 (half-maximal effective concentration), FRET titration
observable: EC50 (nM)
A number alone suffices; assume nM.

So for N[C@@H](CC(=O)O)C(=O)O [L-aspartate] , the logged EC50 turned out to be 141

* * *

- target.or.test.system: PctA-LBD (Pseudomonas aeruginosa, UniProt G3XD24)
- Construct: pET28b(+) derivative containing a DNA fragment encoding the PctA-LBD; made in house
- test.protocol: ITC titration of PctA-LBD with L-alanine at different pH
- Format: binding, P. aeruginosa PAO1
- condition.details: pH 3.0, read-out: dissociation constant (KD)
observable: Kd (µM)
A number alone suffices; assume µM.

I looked up C[C@H](N)C(=O)O and its Kd for PctA-LBD (Pseudomonas aeruginosa, UniProt G3XD24) was 1.3

* * *

- target.or.test.system: TtgV (Pseudomonas putida, UniProt Q93PU6)
- Construct: made in house
- Sequence (Q93PU6 whole entry): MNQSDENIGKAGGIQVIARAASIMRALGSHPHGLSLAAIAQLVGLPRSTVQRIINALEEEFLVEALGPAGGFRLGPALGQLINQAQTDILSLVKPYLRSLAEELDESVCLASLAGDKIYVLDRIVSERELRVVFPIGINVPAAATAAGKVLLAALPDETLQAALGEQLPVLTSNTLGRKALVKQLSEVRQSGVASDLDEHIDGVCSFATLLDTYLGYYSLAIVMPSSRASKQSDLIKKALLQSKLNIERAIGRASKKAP
- test.protocol: ITC titration of TtgV with benzonitrile at different pH
- Format: binding, P. putida DOT-T1E
- condition.details: 25°C, pH 6.0, read-out: KD at pH optimum
observable: pKd
Just so you know, pKd here is -log10 of the concentration in molar units; reply with that number alone.

So for N#Cc1ccccc1 [Benzonitrile] , the logged pKd turned out to be 4.17

* * *

- target.or.test.system: (UniProt A0A4D6XHN3)
- Sequence (A0A4D6XHN3 24-265 limits assumed): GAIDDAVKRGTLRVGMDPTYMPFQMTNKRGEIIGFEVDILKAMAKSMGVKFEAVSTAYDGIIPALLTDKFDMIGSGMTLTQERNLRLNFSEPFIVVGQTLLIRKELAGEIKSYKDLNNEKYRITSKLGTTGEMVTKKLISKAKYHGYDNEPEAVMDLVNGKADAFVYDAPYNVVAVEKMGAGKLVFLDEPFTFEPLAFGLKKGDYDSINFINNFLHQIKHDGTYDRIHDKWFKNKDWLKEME
observable: Kd (nM)
A number alone suffices; assume nM.

I looked up NCCC[C@H](N)C(=O)O and its Kd for (UniProt A0A4D6XHN3) was 660

* * *

- target.or.test.system: UniProtKB P07017
observable: Kd (nM)
A number alone suffices; assume nM.

So for N[C@@H](CC(=O)O)C(=O)O [L-aspartate] , the logged Kd turned out to be 400
